experiment: DRUGMATRIX: Phosphodiesterase PDE4 enzyme inhibition (substrate: [3H]cAMP + cAMP); settings: u-937; Not Active = under 50% inhibition at 10 µM
PROPERTY_NAME: Ki

Examples from the recorded data:
Cc1ccc(C)c(OCCCC(C)(C)C(=O)O)c1 [GEMFIBROZIL] = Not Active
O=c1[nH]c(=O)n([C@H]2C[C@H](O)[C@@H](CO)O2)cc1F [FLOXURIDINE] = Not Active
COC(=O)Nc1nc2cc(C(=O)c3ccc(F)cc3)ccc2[nH]1 [FLUBENDAZOLE] = Not Active
CN1CCN(C(c2ccccc2)c2ccccc2)CC1 [CYCLIZINE] = Not Active

Now for another entry.
Ask | Report Ki for O=c1[nH]c(=O)n(C2CCCO2)cc1F (stereo not given) [TEGAFUR] please.
Reply | Not Active
